Quick reference: IGFBP-1 (% UTC) of the listed items.
# Tested on: IGFBP-1
# assay.comment: IGFBP-1 mRNA expression in HepG2 cells
# Assay type: cell-based, human
# conditions.used: Experiment 1, basal (no insulin); HepG2; 100 nM oligomeric compound
# Protocol: Approximately 28 hours after transfection, the cells are subjected to serum starvation for a period of 12 to 16 hours, using serum-free growth medium. […] Following insulin treatment (forty-eight hours after transfection), total RNA is harvested from all samples, and the amount of total RNA from each sample is determined using a Ribogreen assay (Invitrogen Corporation, Carlsbad, Calif.). […]
In the oligonucleotide strings, read from the 5' end, every base follows the letter of its sugar. An asterisk marks phosphorothioate; unmarked linkages are phosphodiester. Other units and linkages are bracketed, terminal groups are in braces. A string of capitals states the bases alone. e = 2'-O-(2-methoxyethyl) (MOE); [5mC] = 5-methylcytosine
State the answer as a number, implicitly in % UTC.

327890 (antisense eA*eG*e[5mC]*eA*e[5mC]*eA*eA*eA*e[5mC]*eT*eA*e[5mC]*eT*eA*e[5mC]*e[5mC]*eT*e[5mC]*eA) [compound 327890]    99

Identify the measured IGFBP-1 (% UTC) of 327880 (antisense eA*e[5mC]*eA*eA*eA*eT*eT*e[5mC]*eG*eG*eT*eT*e[5mC]*eT*eA*e[5mC]*eA*eG*eG*eG*eT*eA) [compound 327880] for IGFBP-1.
137

Check 327905 (antisense e[5mC]*eA*eG*eA*e[5mC]*eT*e[5mC]*e[5mC]*eG*eG*eT*eG*eG*eA*eA*eT*eG*eA*eA*eG*eG*eA) [compound 327905] too.
107

327878 (antisense e[5mC]*eT*eA*eG*eT*eG*eG*eT*e[5mC]*e[5mC]*eT*eA*eA*eA*e[5mC]*eA*eT*eT*eT*e[5mC]*eA*e[5mC]) [compound 327878] , same question.
162

What do you get for 327913 (antisense eA*eA*e[5mC]*e[5mC]*eG*eA*eT*eT*eT*e[5mC]*eA*eA*eA*eT*eG*eG*eT*eG*e[5mC]*eT*eA*eG) [compound 327913] ?
123
